Molecular target: p38 MAPKα isoform (MAPK14) (Homo sapiens, UniProt Q16539)
Sequence (Q16539 whole entry, canonical isoform): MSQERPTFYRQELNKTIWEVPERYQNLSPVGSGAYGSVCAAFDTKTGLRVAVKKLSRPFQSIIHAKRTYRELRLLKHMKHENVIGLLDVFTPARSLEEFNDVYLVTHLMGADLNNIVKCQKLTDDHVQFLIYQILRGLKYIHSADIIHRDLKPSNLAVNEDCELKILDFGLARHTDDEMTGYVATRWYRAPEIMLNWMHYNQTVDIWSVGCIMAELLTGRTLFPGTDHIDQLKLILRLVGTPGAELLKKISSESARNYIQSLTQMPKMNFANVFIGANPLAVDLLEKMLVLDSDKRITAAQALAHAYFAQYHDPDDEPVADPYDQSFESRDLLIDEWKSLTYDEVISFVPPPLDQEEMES
Experiment: Enzyme inhibition assay (FRET, Z-LYTE), p38 MAPKα via MAPKAP-K2 activation
Settings: read-out: Enzyme Inhibition IC50 p38α
Protocol: The enzyme inhibitory activities of compounds disclosed herein were determined by fluorescence resonance energy transfer (FRET) using synthetic peptides labelled with both donor and acceptor fluorophores (Z-LYTE, Invitrogen Ltd., Paisley, UK). […] Development reagent (protease) was added for 1 hr prior to detection in a fluorescence microplate reader (Varioskan® Flash, ThermoFisher Scientific). […]
pIC50: −log10 of the molar value.
resultType: pIC50

Example entries and their recorded answers appear below.
smilesInput: COCC(=O)Nc1cc(Oc2ccc(NC(=O)Nc3cc(C(C)(C)C)nn3-c3ccc(C)cc3)c(F)c2)ccn1
dataValue: 6.98
--
smilesInput: COc1ccc(-n2nc(C(C)(C)C)cc2NC(=O)Nc2ccc(Oc3ccnc(NC(=O)CN(C)C)c3)c(Cl)c2Cl)cc1
dataValue: 7.56
--
smilesInput: COCC(=O)Nc1cc(Oc2cc(Cl)c(NC(=O)Nc3cc(C(C)(C)C)nn3-c3ccc(C)cc3)cc2Cl)ccn1
dataValue: 7.94
--
smilesInput: CNC(=O)Nc1nccc(Oc2ccc(NC(=O)Nc3cc(C(C)(C)C)nn3-c3ccc(OC)cc3)c(Cl)c2Cl)n1
dataValue: 7.49
--
smilesInput: CNC(=O)Nc1cc(Oc2ccc(NC(=O)Nc3cc(C(C)(C)C)nn3-c3ccc(CO)cc3)c3ncccc23)ccn1
dataValue: 7.49
--
smilesInput: COCC(=O)Nc1cc(Oc2ccc(NC(=O)Nc3cc(C(C)(C)C)nn3-c3ccc(OC)cc3)c(Cl)c2Cl)ccn1
dataValue: 8.10
--
smilesInput: COCC(=O)Nc1cc(Oc2ccc(NC(=O)Nc3cc(C(C)(C)C)nn3-c3ccc(C)cc3)c(Cl)c2Cl)ncn1
dataValue: 7.23
--
smilesInput: COc1ccc(-n2nc(C(C)(C)C)cc2NC(=O)Nc2ccc(Oc3ccnc(NC(=O)N4CCC(N(C)C)CC4)c3)c(Cl)c2Cl)cc1
dataValue: 7.84
--
smilesInput: COc1ccc(-n2nc(C(C)(C)C)cc2NC(=O)Nc2ccc(Oc3ccnc(NC(=O)NCCN4CCOCC4)c3)c(Cl)c2Cl)cc1
dataValue: 7.74
--
smilesInput: CNC(=O)Nc1cc(Oc2ccc(NC(=O)Nc3cc(C(C)(C)C)nn3-c3ccc(OC)cc3)c3cccnc23)ccn1
dataValue: 7.47

[a] CC(C)(C)c1cc(NC(=O)Nc2ccc(Oc3ccnc(NC(=O)N4CCCC4)c3)c(Cl)c2Cl)n(-c2ccc(O)cc2)n1
[b] Cc1ccc(-n2nc(C(C)(C)C)cc2NC(=O)Nc2ccc(Oc3ccnc(NC(=O)N(C)C)c3)c(Cl)c2Cl)cc1
Q. Returns: the label, a or b , whose recorded pIC50 is the lower number. To answer, give the label that identifies your chosen option.
A. a
(a: 6.83, b: 7.54)

[I] COCC(=O)Nc1cc(Oc2ccc(NC(=O)Nc3cc(C(C)(C)C)nn3-c3ccc(C)cc3)c3ncccc23)ccn1
[II] COCC(=O)Nc1cc(Oc2ccc(NC(=O)Nc3cc(C(C)(C)C)nn3-c3ccc(C)cc3)c(Cl)c2C(F)(F)F)ccn1
Q. Returns: the argument ( I or II ) having the larger pIC50. To answer, give the label that identifies your chosen option.
A. I
(I: 9.52, II: 6.99)
